Organism: Homo sapiens
Test: Selectivity ratio of IC50 for PDE6 to IC50 for human PDE5
ASSAY_ENDPOINT: Ratio IC50
One number for each entry.

Reference set (3 entries):
CCc1c2nc(-c3cc(S(=O)(=O)N4CCN(CC)CC4)cnc3OCc3ccccn3)[nH]c(=O)c2nn1CCOC; 309
CCc1c2nc(-c3cc(S(=O)(=O)N4CCN(C)CC4)cnc3OCCOC)[nH]c(=O)c2nn1CC(C)C; 237
CCCCOc1ncc(S(=O)(=O)N2CCN(CC)CC2)cc1-c1nc2c(CC)n(C3CCN(S(C)(=O)=O)CC3)nc2c(=O)[nH]1; 100

# map each compound to its Ratio IC50
1. CCCOc1ccc(S(=O)(=O)N2CCN(CC)CC2)cc1-c1nc2c(CC)n(Cc3ccccn3)nc2c(=O)[nH]1
2. CCc1c2nc(-c3cc(S(=O)(=O)N4CCN(CC)CC4)cnc3OCCOC)[nH]c(=O)c2nn1CCN1CCOCC1
3. CCc1c2nc(-c3cc(S(=O)(=O)N4CCN(CC)CC4)cnc3OCC(C)C)[nH]c(=O)c2nn1CCCN(C)C
4. CCCCOc1ncc(S(=O)(=O)N2CCN(CC)CC2)cc1-c1nc2c(CC)n(C3CCN(C)CC3)nc2c(=O)[nH]1
5. CCCOc1ncc(S(=O)(=O)N2CCN(CC)CC2)cc1-c1nc2c(CC)n(CCOC)nc2c(=O)[nH]1

842
210
404
184
51

###

Test: Elimination half life in rat at 1 mg/kg, iv and 2 mg/kg, po
Type: ADME, organism-based
Conditions: in vivo, read-out: beta t1/2 (converted)
ASSAY_ENDPOINT: half-life (min)
Answers are plain numbers, in min.

Noted for CCOc1ncc(S(=O)(=O)N2CCN(CC)CC2)cc1-c1nc2c(CC)n(CCOC)nc2c(=O)[nH]1 : its half-life reads 57

###

Experiment: Volume of distribution in dog at 0.5 mg/kg, iv and 1 mg/kg, po
Assay type: ADME, organism-based, Canis lupus familiaris
Settings: in vivo
ASSAY_ENDPOINT: Vd (L/kg)
One number for each entry, in L/kg.

CCOc1ncc(S(=O)(=O)N2CCN(CC)CC2)cc1-c1nc2c(CC)n(CCOC)nc2c(=O)[nH]1; 2.8

Now examine the next entry.
Noted for CCN1CCN(S(=O)(=O)c2cnc(OCCOC)c(-c3nc4c5n(nc4c(=O)[nH]3)CCCC5C)c2)CC1 (single isomer, unassigned; (-)) : its Vd reads 2.6

###

Please go through the items and note down their IC50.
Target: cGMP-specific 3',5'-cyclic phosphodiesterase (Homo sapiens)
Experiment: Inhibition of human PDE5 isolated from corpus cavernosum after 30 to 60 mins by scintillation counting method
A complete answer gives the number and then names the unit.

Reference set (10 entries):
CCc1c2nc(-c3cc(S(=O)(=O)N4CCN(CC)CC4)cnc3OCc3ccccn3)[nH]c(=O)c2nn1CCOC; 0.75 nM
CCCCOc1ncc(S(=O)(=O)N2CCN(CC)CC2)cc1-c1nc2c(CC)n(CCN(C)C)nc2c(=O)[nH]1; 1 nM
CCc1c2nc(-c3cc(S(=O)(=O)N4CCN(CC)CC4)cnc3OCC3CC3)[nH]c(=O)c2nn1CCN1CCOCC1; 0.26 nM
CCOc1ncc(S(=O)(=O)N2CCN(CC)CC2)cc1-c1nc2c(CC)n(C3CN(C)C3)nc2c(=O)[nH]1; 8.2 nM
CCc1c2nc(-c3cc(S(=O)(=O)N4CCN(C)CC4)cnc3OCCOC)[nH]c(=O)c2nn1CC(C)C; 2.89 nM
CCCCOc1ncc(S(=O)(=O)N2CCN(CC)CC2)cc1-c1nc2c(CC)n(C3CCN(C)CC3)nc2c(=O)[nH]1; 0.74 nM
CCc1c2nc(-c3cc(S(=O)(=O)N4CCN(CC)CC4)cnc3OCCOC)[nH]c(=O)c2nn1CCN1CCOCC1; 1.27 nM
CCc1c2nc(-c3cc(S(=O)(=O)N4CCN(CC)CC4)cnc3OCC(C)C)[nH]c(=O)c2nn1CCCN(C)C; 2.44 nM
CCc1c2nc(-c3cc(S(=O)(=O)N4CCN(CC)CC4)cnc3OCCOC)[nH]c(=O)c2nn1CC(C)C; 1.04 nM
CCc1c2nc(-c3cc(S(=O)(=O)N4CCN(CC)CC4)cnc3OCCOC)[nH]c(=O)c2nn1C1CCOCC1; 1.66 nM

# map each compound to its IC50
1. CCN1CCN(S(=O)(=O)c2cnc(OCCOC)c(-c3nc4c5n(nc4c(=O)[nH]3)CCCC5C)c2)CC1 (single isomer, unassigned; (-))
2. CCN1CCN(S(=O)(=O)c2cnc(OCCOC)c(-c3nc4c5n(nc4c(=O)[nH]3)CCCC5)c2)CC1
3. CCc1c2nc(-c3cc(S(=O)(=O)N4CCN(CC)CC4)cnc3OCCOC)[nH]c(=O)c2nn1CC1CC1
4. CCN1CCN(S(=O)(=O)c2cnc(OCCOC)c(-c3nc4c5n(nc4c(=O)[nH]3)CCCC5C)c2)CC1 (single isomer, unassigned; (+))
5. CCc1c2nc(-c3cc(S(=O)(=O)N4CCN(CC)CC4)cnc3OCCOC)[nH]c(=O)c2nn1C(C)C
6. CCCOc1ncc(S(=O)(=O)N2CCN(CC)CC2)cc1-c1nc2c3n(nc2c(=O)[nH]1)CCCC3

1. 1.96 nM
2. 8.5 nM
3. 1.01 nM
4. 2.76 nM
5. 1.36 nM
6. 2.47 nM
